# ASSAYED_TARGET: T1, recombinant N-terminal extracellular domain of the human PTH1R receptor (human, UniProt Q03431 27-188, limits assumed)
# T1 construct: domain: N-terminal extracellular domain; Bought reagent; also called N-ECD PTH1R; PTH1R N-terminal ECD
# T1 sequence (looked up): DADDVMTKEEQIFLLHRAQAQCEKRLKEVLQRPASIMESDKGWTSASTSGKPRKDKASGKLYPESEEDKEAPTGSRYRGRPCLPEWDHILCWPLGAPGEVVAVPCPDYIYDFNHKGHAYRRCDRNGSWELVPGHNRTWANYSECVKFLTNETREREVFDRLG
# TEST_DESCRIPTION: SPR, IgG captured, ECD injected
# kon values compiled below
Give the number; M⁻¹ s⁻¹ is assumed, so skip it.

XPA.85.336 (antibody, V domains shown, Light-chain-shuffled variant of XPA.85.017) VH: EVQLVETGGGVVRPGGSLRLSCAASGFTFSSSAMSWVRQTPGKELQWVSAITPGGEGTYYADVVKGRFTISRDNSKDTLYLQMDSLRAEDTAVYYCARDLYGSYGDAFDIWGQGTLVTVSS VL: QSVLTQPPSVSAAPGQKVTISCSGTGSNIGSNYVAWYQQLPGTAPKLLIYDDNKRPSGTPDRFSGSKSGTSATLVIAGLQTGDEADYYCGTWDNTLNVGGVFGGGTQLTVL: 1.1e+06
XPA.85.335 (antibody, V domains shown, Light-chain-shuffled variant of XPA.85.017) VH: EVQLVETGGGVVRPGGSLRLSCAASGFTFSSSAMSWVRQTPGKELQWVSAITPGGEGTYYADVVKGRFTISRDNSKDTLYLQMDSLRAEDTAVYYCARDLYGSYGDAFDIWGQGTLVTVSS VL: QSVLTQPPSVSAAPGQRVTISCSGNTSNIGNNFVSWYQQLPGTAPKLLIYDDNKRPSGIPDRFSGSKSGTSATLGISGLQTGDEADYYCGTWDNSLNPPWVFGGGTQLTVL: 800000

// query kon value for entry XPA.85.327 (antibody, V domains shown, Light-chain-shuffled variant of XPA.85.012; also called XPA.327) VH: QMQLVQSGAEVKKPGSSVKVSCKASGGTFSSYAISWVRQAPGQGLEWMGGIIPIFGTANYAQKFQGRVTITADESTSTAYMELSSLRSEDTAVYYCARGYVVARLWGQGTLVTVSS VL: DIVMTQTPLSLSVTPGQPASITCKSSQSLLHIDGNTYLYWYLQRPGQPPQLLIYEISNRFSGVPDRFSGSGSGTDFTLKISRVEAEDVGVYYCMQSLHFPITFGQGTRLEIK
740000
